system: Amaranthus retroflexus (AMARE); assay: Post-emergence herbicidal efficacy at 80 g/ha, greenhouse pot test; assay type: in vivo; settings: visual rating vs untreated control after about 3 weeks
observed.property: Post-emergence efficacy against Amaranthus retroflexus (AMARE) (%)
The answer is to be given in %; state only the numeric part.

Some compounds with known Post-emergence efficacy against Amaranthus retroflexus (AMARE) results, for comparison:
{"compound": "Cc1cc(C)c(-c2cc(C(F)F)on2)c(Oc2ncc(F)cn2)n1", "result.number": 90}
{"compound": "Cc1cc(C)c(-c2cc(C(F)F)no2)c(Oc2ccc(C#N)cn2)n1", "result.number": 90}
{"compound": "Cc1cc(C)c(-n2cc(I)cn2)c(Oc2ncc(F)cn2)n1", "result.number": 80}
{"compound": "Cc1cc(C)c(-c2cc(C(F)Cl)no2)c(Oc2ncc(Cl)cn2)n1 (centres unmarked)", "result.number": 100}

**Q:** Given Cc1cc(C)c(-c2cc(C(F)(F)Cl)no2)c(Oc2ncc(Cl)cn2)n1 , state its recorded Post-emergence efficacy against Amaranthus retroflexus (AMARE).
**A:** 100
